- Method: Cytotoxicity against mouse J774A1 cells
- Format: cell-based, J774.A1
Readout type: CC50

CN1CCN(c2nc(-c3c[nH]c4ccccc34)c3ccccc3n2)CC1 ... 7.27 µg/mL
COc1ccc(-c2nc(N3CCNCC3)nc3ccccc23)c(OC)c1 ... 3.98 µg/mL
Fc1ccc(N2CCN(c3nc(-c4c[nH]c5ccccc45)c4ccccc4n3)CC2)cc1 ... 23.4 µg/mL
Cn1cc(-c2nc(N3CCNCC3)nc3ccccc23)c2ccccc21 ... 16 µg/mL
c1ccc2c(-c3c[nH]c4ccccc34)nc(N3CCOCC3)nc2c1 ... 50.1 µg/mL

Give its CC50 value. Item: `COc1cc(OC)c(-c2nc(N3CCN(C)CC3)nc3ccccc23)c(OC)c1`
> 100 µg/mL

----------
- System: KB
- Method: Antiproliferative activity against human KB cells by MTT assay
- Type: functional, cell-based
For each record, write down the corresponding IC50.

COc1cc(OC)c(-c2nc(N3CCN(C)CC3)nc3ccccc23)c(OC)c1 ... > 50 µg/mL

Each compound below has a reported value. Please supply its IC50.
1. Cn1cc(-c2nc(N3CCNCC3)nc3ccccc23)c2ccccc21
2. COc1ccc(-c2nc(N3CCNCC3)nc3ccccc23)c(OC)c1
3. COc1cc(OC)c(-c2nc(N3CCNCC3)nc3ccccc23)c(OC)c1
4. c1ccc2c(-c3c[nH]c4ccccc34)nc(N3CCOCC3)nc2c1
5. CN1CCN(c2nc(-c3cn(C)c4ccccc34)c3ccccc3n2)CC1
6. Fc1ccc(N2CCN(c3nc(-c4c[nH]c5ccccc45)c4ccccc4n3)CC2)cc1
7. c1ccc2c(-c3c[nH]c4ccccc34)nc(N3CCNCC3)nc2c1

1. > 50 µg/mL
2. > 50 µg/mL
3. > 50 µg/mL
4. > 50 µg/mL
5. > 50 µg/mL
6. > 50 µg/mL
7. 4 µg/mL

For each entry beneath this line, provide reported IC50.
1. c1ccc2c(-c3c[nH]c4ccccc34)nc(N3CCCCC3)nc2c1
2. COc1ccc(-c2nc(N3CCN(C)CC3)nc3ccccc23)c(OC)c1
3. CN1CCN(c2nc(-c3c[nH]c4ccccc34)c3ccccc3n2)CC1

1. > 50 µg/mL
2. > 50 µg/mL
3. 4.9 µg/mL

----------
- Method: Cytotoxicity against mouse J774A1 cells
- Assay type: cell-based, J774.A1
Task for the reader: assign each of the following compounds its reported CC50.
Answers are plain numbers, in µg/mL.

c1ccc2c(-c3c[nH]c4ccccc34)nc(N3CCNCC3)nc2c1 ... 3.11
CN1CCN(c2nc(-c3cn(C)c4ccccc34)c3ccccc3n2)CC1 ... 1.03

Okay, next one:
Item under review: `COc1ccc(-c2nc(N3CCN(C)CC3)nc3ccccc23)c(OC)c1` . Reported CC50?
18

----------
- Test system: MCF7
- Method: Antiproliferative activity against human MCF7 cells by MTT assay
- Assay type: functional, cell-based
Readout type: IC50

COc1cc(OC)c(-c2nc(N3CCN(C)CC3)nc3ccccc23)c(OC)c1 ... > 50 µg/mL
COc1cc(OC)c(-c2nc(N3CCNCC3)nc3ccccc23)c(OC)c1 ... > 50 µg/mL
Cn1cc(-c2nc(N3CCNCC3)nc3ccccc23)c2ccccc21 ... > 50 µg/mL
CN1CCN(c2nc(-c3c[nH]c4ccccc34)c3ccccc3n2)CC1 ... 6 µg/mL
CN1CCN(c2nc(-c3cn(C)c4ccccc34)c3ccccc3n2)CC1 ... > 50 µg/mL

Missing value: IC50, MCF7, entry `c1ccc2c(-c3c[nH]c4ccccc34)nc(N3CCCCC3)nc2c1` . Fill in?
> 50 µg/mL
